These entries and their values trace back to paper PMC6199744.

Target: HeLa cell extract proteins (Homo sapiens, UniProt O95714)
Construct: endogenous in cells; host or cells: HeLa cell extract
Sequence (O95714 whole entry): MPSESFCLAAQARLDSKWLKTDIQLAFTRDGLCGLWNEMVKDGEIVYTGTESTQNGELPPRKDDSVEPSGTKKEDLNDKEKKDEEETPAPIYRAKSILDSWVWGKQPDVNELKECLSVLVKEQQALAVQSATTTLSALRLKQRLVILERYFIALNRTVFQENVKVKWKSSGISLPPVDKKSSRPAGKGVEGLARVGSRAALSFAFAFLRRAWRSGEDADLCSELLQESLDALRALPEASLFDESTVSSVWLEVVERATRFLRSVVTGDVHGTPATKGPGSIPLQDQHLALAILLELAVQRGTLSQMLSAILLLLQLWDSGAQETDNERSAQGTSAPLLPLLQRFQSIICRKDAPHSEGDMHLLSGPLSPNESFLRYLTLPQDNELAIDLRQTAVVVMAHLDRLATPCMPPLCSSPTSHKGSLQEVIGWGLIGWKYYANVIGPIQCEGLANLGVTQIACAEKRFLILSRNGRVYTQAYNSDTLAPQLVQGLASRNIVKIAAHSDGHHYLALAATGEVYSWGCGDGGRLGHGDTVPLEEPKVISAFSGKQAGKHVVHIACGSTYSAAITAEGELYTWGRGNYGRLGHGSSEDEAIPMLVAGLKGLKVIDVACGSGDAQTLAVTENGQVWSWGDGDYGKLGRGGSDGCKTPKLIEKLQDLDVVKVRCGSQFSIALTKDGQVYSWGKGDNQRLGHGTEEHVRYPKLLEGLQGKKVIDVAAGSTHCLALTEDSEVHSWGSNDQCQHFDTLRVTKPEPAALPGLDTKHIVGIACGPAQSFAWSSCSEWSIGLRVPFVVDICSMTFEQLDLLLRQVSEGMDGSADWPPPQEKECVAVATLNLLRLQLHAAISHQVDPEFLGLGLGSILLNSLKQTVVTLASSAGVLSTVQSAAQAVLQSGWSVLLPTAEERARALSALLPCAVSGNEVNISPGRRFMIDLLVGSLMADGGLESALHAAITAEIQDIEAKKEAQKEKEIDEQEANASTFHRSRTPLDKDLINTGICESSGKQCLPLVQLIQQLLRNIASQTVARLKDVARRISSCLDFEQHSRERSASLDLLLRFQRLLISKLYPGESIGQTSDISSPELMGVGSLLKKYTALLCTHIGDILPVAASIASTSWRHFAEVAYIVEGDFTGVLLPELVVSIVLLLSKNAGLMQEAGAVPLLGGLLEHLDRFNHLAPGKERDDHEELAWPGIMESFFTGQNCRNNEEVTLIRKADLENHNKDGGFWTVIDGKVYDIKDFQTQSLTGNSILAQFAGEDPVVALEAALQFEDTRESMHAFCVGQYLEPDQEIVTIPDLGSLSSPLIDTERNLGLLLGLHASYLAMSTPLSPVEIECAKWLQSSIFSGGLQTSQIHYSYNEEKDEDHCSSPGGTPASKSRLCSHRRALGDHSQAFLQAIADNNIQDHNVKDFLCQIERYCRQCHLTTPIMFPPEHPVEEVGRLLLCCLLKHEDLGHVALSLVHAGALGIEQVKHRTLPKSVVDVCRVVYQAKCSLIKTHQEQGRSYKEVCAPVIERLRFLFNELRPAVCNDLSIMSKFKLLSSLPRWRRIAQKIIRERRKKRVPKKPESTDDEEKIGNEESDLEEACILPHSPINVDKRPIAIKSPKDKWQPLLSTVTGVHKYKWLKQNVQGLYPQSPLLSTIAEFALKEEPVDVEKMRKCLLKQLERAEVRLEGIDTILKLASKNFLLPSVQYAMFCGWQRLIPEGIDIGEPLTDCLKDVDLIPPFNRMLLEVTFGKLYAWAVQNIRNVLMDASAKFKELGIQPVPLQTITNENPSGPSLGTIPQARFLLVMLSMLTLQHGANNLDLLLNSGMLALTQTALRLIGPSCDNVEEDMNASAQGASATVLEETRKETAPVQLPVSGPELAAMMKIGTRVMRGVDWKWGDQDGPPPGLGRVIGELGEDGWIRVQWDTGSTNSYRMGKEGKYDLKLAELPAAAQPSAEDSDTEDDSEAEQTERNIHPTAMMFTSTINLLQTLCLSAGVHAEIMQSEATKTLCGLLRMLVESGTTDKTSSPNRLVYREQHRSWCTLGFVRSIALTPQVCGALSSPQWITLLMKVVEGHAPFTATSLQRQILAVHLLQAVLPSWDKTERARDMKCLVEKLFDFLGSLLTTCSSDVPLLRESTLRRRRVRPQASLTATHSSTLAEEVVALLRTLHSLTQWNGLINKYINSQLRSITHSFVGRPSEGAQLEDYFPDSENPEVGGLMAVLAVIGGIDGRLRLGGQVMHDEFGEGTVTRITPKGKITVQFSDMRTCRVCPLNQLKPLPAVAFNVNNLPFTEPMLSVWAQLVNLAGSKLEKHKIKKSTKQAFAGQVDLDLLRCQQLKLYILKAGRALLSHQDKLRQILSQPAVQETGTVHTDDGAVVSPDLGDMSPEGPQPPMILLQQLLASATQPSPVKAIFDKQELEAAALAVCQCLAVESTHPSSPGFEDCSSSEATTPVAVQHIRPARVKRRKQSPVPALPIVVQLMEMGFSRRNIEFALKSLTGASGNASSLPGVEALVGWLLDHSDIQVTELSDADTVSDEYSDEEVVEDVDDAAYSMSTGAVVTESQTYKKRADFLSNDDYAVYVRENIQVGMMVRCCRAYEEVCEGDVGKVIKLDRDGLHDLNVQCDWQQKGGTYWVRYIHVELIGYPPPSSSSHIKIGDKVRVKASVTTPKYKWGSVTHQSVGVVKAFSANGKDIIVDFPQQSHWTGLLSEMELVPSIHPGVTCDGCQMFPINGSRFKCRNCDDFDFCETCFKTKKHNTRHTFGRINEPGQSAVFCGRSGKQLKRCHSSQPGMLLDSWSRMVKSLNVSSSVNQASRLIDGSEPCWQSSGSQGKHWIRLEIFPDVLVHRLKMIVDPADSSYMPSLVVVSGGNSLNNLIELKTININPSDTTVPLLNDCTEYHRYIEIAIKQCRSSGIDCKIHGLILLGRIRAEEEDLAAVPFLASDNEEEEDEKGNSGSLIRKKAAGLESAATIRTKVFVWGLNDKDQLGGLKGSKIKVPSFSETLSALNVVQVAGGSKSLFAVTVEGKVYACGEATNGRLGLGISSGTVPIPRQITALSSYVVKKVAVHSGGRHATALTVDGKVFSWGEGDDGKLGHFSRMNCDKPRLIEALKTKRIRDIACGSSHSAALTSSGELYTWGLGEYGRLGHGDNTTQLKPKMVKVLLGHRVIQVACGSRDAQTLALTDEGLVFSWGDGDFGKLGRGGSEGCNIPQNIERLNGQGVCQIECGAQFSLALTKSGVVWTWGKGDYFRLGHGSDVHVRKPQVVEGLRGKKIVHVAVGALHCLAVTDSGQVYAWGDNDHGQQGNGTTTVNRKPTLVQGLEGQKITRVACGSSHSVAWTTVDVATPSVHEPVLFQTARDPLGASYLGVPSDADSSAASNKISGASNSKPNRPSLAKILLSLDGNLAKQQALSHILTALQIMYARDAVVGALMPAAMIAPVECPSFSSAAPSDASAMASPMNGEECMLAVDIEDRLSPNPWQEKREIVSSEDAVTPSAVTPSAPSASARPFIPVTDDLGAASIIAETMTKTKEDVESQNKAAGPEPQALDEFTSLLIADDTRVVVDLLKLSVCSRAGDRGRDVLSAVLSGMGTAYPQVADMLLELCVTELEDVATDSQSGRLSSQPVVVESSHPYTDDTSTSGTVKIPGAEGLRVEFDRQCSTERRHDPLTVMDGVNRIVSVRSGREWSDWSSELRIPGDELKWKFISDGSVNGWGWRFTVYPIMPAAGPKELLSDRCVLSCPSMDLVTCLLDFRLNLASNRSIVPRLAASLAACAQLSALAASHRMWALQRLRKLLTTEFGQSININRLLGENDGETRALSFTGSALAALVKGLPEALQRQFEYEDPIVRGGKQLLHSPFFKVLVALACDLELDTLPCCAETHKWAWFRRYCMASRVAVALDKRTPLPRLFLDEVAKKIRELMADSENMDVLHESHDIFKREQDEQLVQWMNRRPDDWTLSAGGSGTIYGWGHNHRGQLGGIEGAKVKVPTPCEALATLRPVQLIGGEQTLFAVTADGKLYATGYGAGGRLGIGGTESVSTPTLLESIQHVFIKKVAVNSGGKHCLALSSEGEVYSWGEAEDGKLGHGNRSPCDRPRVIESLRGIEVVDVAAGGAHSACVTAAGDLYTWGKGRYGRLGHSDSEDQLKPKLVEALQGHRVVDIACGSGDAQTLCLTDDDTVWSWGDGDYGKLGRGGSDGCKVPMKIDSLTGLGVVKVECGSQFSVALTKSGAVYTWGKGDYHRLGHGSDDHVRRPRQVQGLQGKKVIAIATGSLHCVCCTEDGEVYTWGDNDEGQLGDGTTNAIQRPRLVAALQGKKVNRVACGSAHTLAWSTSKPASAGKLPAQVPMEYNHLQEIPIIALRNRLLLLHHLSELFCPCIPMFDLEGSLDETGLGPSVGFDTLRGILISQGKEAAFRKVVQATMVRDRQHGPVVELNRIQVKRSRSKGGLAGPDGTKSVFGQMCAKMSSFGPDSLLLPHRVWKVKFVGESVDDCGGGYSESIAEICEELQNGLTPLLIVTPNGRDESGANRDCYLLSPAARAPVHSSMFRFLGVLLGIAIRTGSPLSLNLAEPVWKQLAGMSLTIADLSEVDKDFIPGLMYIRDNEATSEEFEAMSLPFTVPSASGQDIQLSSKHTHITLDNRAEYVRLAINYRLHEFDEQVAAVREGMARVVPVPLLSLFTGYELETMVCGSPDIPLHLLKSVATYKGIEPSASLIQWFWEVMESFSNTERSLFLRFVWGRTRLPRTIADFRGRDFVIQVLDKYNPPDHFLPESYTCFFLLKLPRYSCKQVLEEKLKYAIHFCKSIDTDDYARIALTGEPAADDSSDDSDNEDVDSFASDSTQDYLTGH
Assay type: binding
Conditions: protein HERC2; HeLa
Threshold 1. fold changes relative to vehicle control below it: satisfied. fold changes relative to vehicle control at it or above: not satisfied.

As a guide, the following entries are already answered.
INSERT INTO assay_data (compound, class_name) VALUES
  ('CCCCCCOc1cccc(Cc2cnc(N)nc2N)c1', 'satisfied'),
  ('Nc1nc2c(c(=O)[nH]1)N(C=O)C(CNc1ccc(C(=O)N[C@@H](CCC(=O)O)C(=O)O)cc1)CN2 (stereo partly drawn)', 'not satisfied'),
  ('NCCOCCOCC(=O)Nc1nc2ncc(CNc3ccc(C(=O)NC(CCC(=O)O)C(=O)O)cc3)nc2c(=O)[nH]1 (stereo not drawn)', 'not satisfied'),
  ('NCCCNc1ccc(C(=O)NC(CCC(=O)O)C(=O)O)cc1 (stereo not drawn)', 'not satisfied');

INPUT: Take the compound `Nc1nc2cccc(-c3ccccc3)c2n1Cc1ccc(Cl)c(Cl)c1` and say whether its fold changes relative to vehicle control is less than 1.
OUTPUT: not satisfied
